These records show log10(IC50) for 3',5'-cyclic-AMP phosphodiesterase 4B (Rattus norvegicus, UniProt P14646).
readout-kind: log10(IC50) (log10 of the value in µM)

smiles-record | subject-of-test | readout-value
COc1cc2nc(C)nc(-c3cc(OCC4CC4)cc(OCC4CC4)c3)c2cc1OC | 3',5'-cyclic-AMP phosphodiesterase 4B (Rattus norvegicus, UniProt P14646) | -0.19
COc1cc2c(-c3cc(OCC4CC4)cc(OCC4CC4)c3)nc(N3CCOCC3)nc2cc1OCCO | 3',5'-cyclic-AMP phosphodiesterase 4B (Rattus norvegicus, UniProt P14646) | 0.40
COc1cc2c(-c3cc(OCC4CC4)cc(OCC4CC4)c3)nc(NCCCO)nc2cc1OCCO | 3',5'-cyclic-AMP phosphodiesterase 4B (Rattus norvegicus, UniProt P14646) | -0.47
CCc1nc(-c2cc(OCC3CC3)cc(OCC3CC3)c2)c2cc(OC)c(O)cc2n1 | 3',5'-cyclic-AMP phosphodiesterase 4B (Rattus norvegicus, UniProt P14646) | 0.38
CCCCc1nc(-c2cc(OCC3CC3)cc(OCC3CC3)c2)c2cc(OC)c(OCCO)cc2n1 | 3',5'-cyclic-AMP phosphodiesterase 4B (Rattus norvegicus, UniProt P14646) | -0.52
COc1cc2c(-c3cc(OCC4CC4)cc(OCC4CC4)c3)nc(-c3cc(OCC4CC4)cc(OCC4CC4)c3)nc2cc1OCCO | 3',5'-cyclic-AMP phosphodiesterase 4B (Rattus norvegicus, UniProt P14646) | 1.34

Hello, the source for this data is ChEMBL document CHEMBL1130634, in case you need it.
